# target.under.test: GST-tagged human ROCK1 catalytic domain 1-477 (Homo sapiens (Human), UniProt Q13464)
# Sequence (Q13464 1-477): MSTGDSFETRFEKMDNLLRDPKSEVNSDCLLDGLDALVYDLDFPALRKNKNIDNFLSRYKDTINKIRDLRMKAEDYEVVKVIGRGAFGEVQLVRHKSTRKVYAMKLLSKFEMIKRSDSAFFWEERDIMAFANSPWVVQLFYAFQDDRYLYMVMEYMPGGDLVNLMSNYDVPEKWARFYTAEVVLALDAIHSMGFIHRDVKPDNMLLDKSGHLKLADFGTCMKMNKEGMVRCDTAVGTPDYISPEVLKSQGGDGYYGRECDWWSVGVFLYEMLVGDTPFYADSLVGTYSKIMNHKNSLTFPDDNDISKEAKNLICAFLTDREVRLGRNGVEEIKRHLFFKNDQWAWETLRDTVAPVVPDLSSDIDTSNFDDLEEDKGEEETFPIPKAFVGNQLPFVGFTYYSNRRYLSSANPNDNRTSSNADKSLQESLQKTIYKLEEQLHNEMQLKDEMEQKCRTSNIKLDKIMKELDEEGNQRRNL
# run.description: Inhibition of Rho-associated protein kinase isoform 1 (LANCE Ultra ULight-CREBtide FRET kinase assay)
# Assay type: biochemical
# experimental.context: 30 μM was the highest concentration analyzed
readout: IC50

-- ask Look at this compound and give its reported IC50. OCCN(c1ccc2[nH]ncc2c1)c1nnc(-c2cnccn2)s1 [Example A-12]
-- reply > 30 µM

-- ask Could you share which IC50 value was measured for Cc1coc(-c2cc(F)cc(-c3nnc(Nc4ccc5[nH]ncc5c4Cl)s3)c2)n1 [Example 46D] ?
-- reply > 30 µM

-- ask Which IC50 is listed for c1csc(-c2cncc(-c3nnc(Nc4ccc5[nH]ncc5c4)s3)c2)c1 [Example 39D] ?
-- reply 1 to 15 µM

-- ask Please give the measured IC50 for this compound: CC(C(=O)Nc1cccc(-c2nnc(Nc3ccc4[nH]ncc4c3Cl)s2)c1)c1ccccn1 (stereo not shown) [Example 35AH]
-- reply < 1 µM

The reported measurements were obtained from patent US10112935B2.
